system: huNav1.7α (human, UniProt Q15858 1-1988)
test: cell-based or functional assay
Below, each entry is listed with its recorded Qpatch IC50.
Numeric answer only, unit nM assumed.

Example entries and their recorded answers appear below.
>>> value_measured("F010302377 (bispecific antibody, also called F0103275B05(E1D, N93R)-50GS-F0103492E09-FLAG3-HIS6) DVQLVESGGGLVQPGGSLRLSCAASGSIFNINSMAWYRRAPGKQRELVASSTNGGSTNYADSVKGRFTISRDNAKRVYLQMNSLTPEDTAVYYCRALLQPSIYDISRTYWGQGTLVTVSSGGGGSGGGGSGGGGSGGGGSGGGGSGGGGSGGGGSGGGGSGGGGSGGGGSEVQLVESGGGLVQAGGSLRLSCAASKSILSFAYMRWYRQAPGKQREFVASIAIGGATSYTDSVKGRFTISRDNAKNTVYLQMNSLKPEDTAVYYCSAPAGQYRGQGTLVTVSSGAADYKDHDGDYKDHDIDYKDDDDKGAAHHHHHH")
74
>>> value_measured("F010300468 (VHH, also called F0103275B05(N93R) + FLAG3-HIS6; F103275B05(N93R) + FLAG3-HIS6) VHH: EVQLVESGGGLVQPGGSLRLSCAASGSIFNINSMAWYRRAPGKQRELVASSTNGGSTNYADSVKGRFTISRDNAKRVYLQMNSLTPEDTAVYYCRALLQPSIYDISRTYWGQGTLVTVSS")
57
>>> value_measured("F010302378 (bispecific antibody, also called F0103275B05(E1D, N93R)-50GS-F0103495F09-FLAG3-HIS6) DVQLVESGGGLVQPGGSLRLSCAASGSIFNINSMAWYRRAPGKQRELVASSTNGGSTNYADSVKGRFTISRDNAKRVYLQMNSLTPEDTAVYYCRALLQPSIYDISRTYWGQGTLVTVSSGGGGSGGGGSGGGGSGGGGSGGGGSGGGGSGGGGSGGGGSGGGGSGGGGSEVQLVESGGGLVQAGSSLSLSCAASGRALSTYAMGWFRQAPGKEREFVARISRSGITTYYTDSVKGRFTISRDRAKDTVYLQMNSLKPEDTAIYLCAADASTNPAGYYLRNRYDYWGQGTLVTVSSGAADYKDHDGDYKDHDIDYKDDDDKGAAHHHHHH")
115

Reported Qpatch IC50 ( F010302375 (bispecific antibody, also called F0103275B05(E1D, N93R)-50GS-F0103478E09(L108Q)-FLAG3-HIS6) DVQLVESGGGLVQPGGSLRLSCAASGSIFNINSMAWYRRAPGKQRELVASSTNGGSTNYADSVKGRFTISRDNAKRVYLQMNSLTPEDTAVYYCRALLQPSIYDISRTYWGQGTLVTVSSGGGGSGGGGSGGGGSGGGGSGGGGSGGGGSGGGGSGGGGSGGGGSGGGGSEVQLVESGGGLVQAGGSLRLSCAASGRAFSTLAMGWFRQAPGKEREFVAAISRNGNNSATGDSLKGRFTISRDSTKSTVFLQMNTLKPEDTAVYYCAAISTPSASHPYVRKESYRYWGQGTQVTVSSGAADYKDHDGDYKDHDIDYKDDDDKGAAHHHHHH ) = 123
